Just for reference, ChEMBL document CHEMBL1201862 is where these values come from.

Please respond with reported AC50 for every item in the list.
target: Histone-lysine N-methyltransferase NSD2 (Homo sapiens, UniProt O96028)
Sequence (O96028 whole entry): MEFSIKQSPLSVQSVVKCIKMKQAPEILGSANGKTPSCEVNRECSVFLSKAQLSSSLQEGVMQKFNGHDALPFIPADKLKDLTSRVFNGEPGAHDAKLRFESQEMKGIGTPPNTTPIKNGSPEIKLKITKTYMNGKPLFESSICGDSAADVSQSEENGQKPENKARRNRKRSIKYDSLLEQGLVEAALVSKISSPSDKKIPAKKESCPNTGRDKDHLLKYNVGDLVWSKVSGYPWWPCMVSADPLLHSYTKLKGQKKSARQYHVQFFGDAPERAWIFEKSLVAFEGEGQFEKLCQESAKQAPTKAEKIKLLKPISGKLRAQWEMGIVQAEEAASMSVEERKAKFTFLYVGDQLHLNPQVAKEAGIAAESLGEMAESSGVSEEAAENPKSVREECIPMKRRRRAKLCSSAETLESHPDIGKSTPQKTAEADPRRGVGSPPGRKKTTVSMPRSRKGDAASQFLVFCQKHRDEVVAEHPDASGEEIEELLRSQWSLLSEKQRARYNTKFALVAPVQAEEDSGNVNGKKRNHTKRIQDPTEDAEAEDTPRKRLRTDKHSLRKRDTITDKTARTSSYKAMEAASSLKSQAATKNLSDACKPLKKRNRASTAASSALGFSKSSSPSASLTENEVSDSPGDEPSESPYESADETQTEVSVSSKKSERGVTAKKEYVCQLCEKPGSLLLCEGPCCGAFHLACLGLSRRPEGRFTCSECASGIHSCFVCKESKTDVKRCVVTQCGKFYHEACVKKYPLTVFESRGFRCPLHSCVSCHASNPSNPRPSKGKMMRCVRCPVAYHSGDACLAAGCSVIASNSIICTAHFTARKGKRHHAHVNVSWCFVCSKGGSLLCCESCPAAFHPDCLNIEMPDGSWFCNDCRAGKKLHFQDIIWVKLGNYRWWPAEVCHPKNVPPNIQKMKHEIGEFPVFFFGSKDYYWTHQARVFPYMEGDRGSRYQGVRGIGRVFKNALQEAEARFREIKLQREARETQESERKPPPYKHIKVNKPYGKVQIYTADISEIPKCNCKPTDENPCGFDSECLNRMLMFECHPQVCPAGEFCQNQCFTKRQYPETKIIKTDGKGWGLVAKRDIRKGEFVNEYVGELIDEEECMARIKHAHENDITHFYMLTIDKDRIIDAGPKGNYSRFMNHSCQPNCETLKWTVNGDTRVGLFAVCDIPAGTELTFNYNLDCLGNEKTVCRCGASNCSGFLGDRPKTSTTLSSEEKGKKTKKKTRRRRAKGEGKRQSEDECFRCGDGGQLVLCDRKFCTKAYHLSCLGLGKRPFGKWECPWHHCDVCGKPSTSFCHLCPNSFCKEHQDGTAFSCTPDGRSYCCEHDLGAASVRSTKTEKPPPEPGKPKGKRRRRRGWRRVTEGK
Assay type: biochemical
Activity calls are given as the source filed them.

What value of AC50 has been reported for the following molecule? O=C(O)CCCNc1cc(N2CCN(C(=O)c3ccco3)CC2)c2noc3c2c1C(=O)c1ccccc1-3
14.8 µM (active)

What value of AC50 has been reported for the following molecule? CC1NC(=O)NC1CCCCCC(=O)Nc1ccc(F)cc1 (stereo not given)
0.113 µM (active)

What value of AC50 has been reported for the following molecule? O=C(NC1(O)C(=O)c2ccccc2C1=O)c1ccc(C(F)(F)F)cc1
3.39 µM (active)

What value of AC50 has been reported for the following molecule? O=C(COC(=O)c1ccc([N+](=O)[O-])s1)Nc1ncc(C(F)(F)F)cc1Cl
12.5 µM (active)

What value of AC50 has been reported for the following molecule? O=C(NC1(O)C(=O)c2ccccc2C1=O)c1c(Cl)cccc1Cl
3.16 µM (active)
